# EXPERIMENT NOTES: Solvent scope of N,N′-dialkylaldaramides (1%) or N,N′-dialkylpentaramides (1%): gelation/solubility behaviour in solvents
# Type: physicochemical
# Set-up: key: g = gelation; s = soluble; p = precipitates; c = crystallizes; ns = not soluble; v = viscous; g* = unstable gel, precipitates; cg = crystalline gel
# CONDITION PARAMETERS: 1% gelling agent; Dimethylsulfoxide
READOUT KIND: Gelation/solubility behaviour in Dimethylsulfoxide

Below: 5 molecules and their reported Gelation/solubility behaviour in Dimethylsulfoxide.
| MOLECULE | VALUE MEASURED |
| --- | --- |
| CCCCCCCCNC(=O)[C@@H](O)[C@@H](O)[C@H](O)[C@@H](O)C(=O)NCCCCCCCC [Example 8, dioctyl D-glucaramide] | s |
| O=C(NC1CCCCC1)[C@@H](O)[C@@H](O)[C@@H](O)C(=O)NC1CCCCC1 [Example 4, dicyclohexyl D-ribaramide] | s |
| CCCCCCCCCCCCNC(=O)[C@@H](O)[C@@H](O)[C@H](O)[C@@H](O)C(=O)NCCCCCCCCCCCC [Example 12, didodecyl D-glucaramide] | s |
| CCCCCCCCNC(=O)[C@@H](O)[C@@H](O)[C@H](O)[C@H](O)C(=O)NCCCCCCCC [Example 9, dioctyl D-mannaramide] | c |
| O=C(NC1CCCCC1)[C@@H](O)[C@@H](O)[C@H](O)[C@@H](O)C(=O)NC1CCCCC1 [Example 5, dicyclohexyl D-glucaramide] | cg |

Prompt: Please give the documented Gelation/solubility behaviour in Dimethylsulfoxide of CCCCCCCCNC(=O)[C@@H](O)[C@H](O)[C@H](O)[C@@H](O)C(=O)NCCCCCCCC [Example 10, dioctyl galactaramide]
Completion: s

====

# EXPERIMENT NOTES: Solvent scope of N,N′-dialkylaldaramides (1%) or N,N′-dialkylpentaramides (1%): gelation/solubility behaviour in solvents
# Type: physicochemical
# Design: key: g = gelation; s = soluble; p = precipitates; c = crystallizes; ns = not soluble; v = viscous; g* = unstable gel, precipitates; cg = crystalline gel
# CONDITION PARAMETERS: 1% gelling agent; Cyclohexane
READOUT KIND: Gelation/solubility behaviour in Cyclohexane

| COMPOUND | VALUE MEASURED |
| --- | --- |
| CCCCCCCCNC(=O)[C@@H](O)[C@@H](O)[C@H](O)[C@@H](O)C(=O)NCCCCCCCC [Example 8, dioctyl D-glucaramide] | ns |
| CCCCCCCCNC(=O)[C@@H](O)[C@H](O)[C@H](O)[C@@H](O)C(=O)NCCCCCCCC [Example 10, dioctyl galactaramide] | ns |
| O=C(NC1CCCCCCCCCCC1)[C@@H](O)[C@@H](O)[C@H](O)[C@@H](O)C(=O)NC1CCCCCCCCCCC1 [Example 15, dicyclododecyl D-glucaramide] | g |
| CO[C@@H]([C@H](O)[C@H](O)C(=O)NC1CCCCCCCCCCC1)[C@@H](O)C(=O)NC1CCCCCCCCCCC1 [Example 22, 3-O-methyl-dicyclododecyl D-glucaramide] | g |
| CCCCCCCCCCCCNC(=O)[C@@H](O)[C@H](O)[C@H](O)[C@@H](O)C(=O)NCCCCCCCCCCCC [Example 14, didodecyl galactaramide] | ns |

Prompt: Please give the documented Gelation/solubility behaviour in Cyclohexane of O=C(NC1CCCCC1)[C@@H](O)[C@@H](O)[C@@H](O)C(=O)NC1CCCCC1 [Example 4, dicyclohexyl D-ribaramide]
Completion: ns
